src = the NTF2 design screens of Basanta et al. (2020)

// reported protease stability score per item
# procedure.text: protease stability score; higher = more stable; yeast display proteolysis, trypsin and chymotrypsin;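 also: relative to predicted unfolded state with 0 unfolded-like and 1 meaning tenfold more protease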

biopolymer.sequence	protease stability score
SEDEEHWRKTINLLIIAIRTGNEDLFWKLLDPNTRFEVDIGDKMIDLHGREKVAEWLHRFIHKIPNLKIHIREIEFNENETRIHGETHFDGKTRTVEIIIELVDGRMKEFIFIVK	2.16
SDETKRLEEHLKHRFRSMVTGNEEDISRLMDPNAKLIVGDKEFHGREIVLKLLLRWAHEMRLRHEEVEEIHIIGDYVRINGILHMEVGDKSIEIHTVIIILKIDGRWRDKTEHYG	0.654
DEEEDVMRKWLQLFLEAFETGDFRLIEEMFDPNTRLDVGDKEYHGRDEIARVIRTLWEEMRFEHFHIHRFDVFNGVANSDTHVVGKIGDKRRDVRVHIILIIVNGKLKKFRIETR	1.71
SDSEKVSREAWELMLRDHETGDEEAFQNNVDPHTRIHINGVDYHGWRDFVDLMRELRIEHVTLRDYRVIGNKMHIHGQVHGEIDGRRINMHVTIIARKINGRWILEHSIFV	1.97
TEEEEILREAYELFFKMMKTGDEHMKSRLADPNVRLHIGDKENHGMDEVIRVFREEHKRYKNLTLRHWHLEDSHVVNGRIILHYKMNVEVNGVEIETSVHVVIRKINGKWELESLSVE	0.882
DEKHEFVRRRIEEWLEALRTGDEDTLHRLADPNVKMNINGVERHGRESMLSLFEEFGVNHFHIRDVKIQGEKSFIDGEIRYGDKIHRVQMEIQVIDGVLESHKLRVH	1.13

====

// reported protease stability score per item
# procedure.text: protease stability score; higher = more stable; yeast display proteolysis, trypsin and chymotrypsin;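 also: relative to predicted unfolded state with 0 unfolded-like and 1 meaning tenfold more protease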
quantity: protease stability score

biopolymer.sequence	quantity	result.value
DEEERQVLLLAKILIHLYYTGDEESFRKLLDPHVRIIWNGRDFVGRENWYELLHRVLRHWRIHHIDIHDFDVQGNKARFHTQIVVDVNGKHIRSHTEVIYVVVNGRVDEIEVIIR	protease stability score	2.37
SDEEEEVREYYEKWFHDVYTGDEDSFRDMLDPHVKVEINGKELHGRENAEKFEKRMGVDHLNIRRFHFWDGRLEIRGESEYGDKRFKTEIHAIKINGRWVVKLIRFE	protease stability score	0.761
DEEHKTSYKALEQLIRVLRTGDERLMSELADPHVRMDFDGRRHHGRESMKREFLELGIDHVHLDRWNLIGNKVLSDGHMRFDGRSMRVEIIAYKVDGRWVLEEVRFE	protease stability score	0.03
SKEEEDARFMMHLWEHVLRTGDEDVLHKLADPDVKIIIGDKEHVGREELIDIFRERLKEWRIHDFHIRRVHVINGKVHVDGETDGTINGRRIIFRIEIHLVIVDGRIKEVEEDME	protease stability score	1.87
DEDEEFSKEAFEMVEWVIRTGDERLIEHMMDPNAKILIDGQEFWGRHIFSKHVEELGIDHIDDFQVKDVTFFNGRVNLNGELRGNFNGKETTFELHTIALKVNGQWINHSLEIK	protease stability score	0.658
SDHDEISHDMFRLWLELHLTGDPKVLADLFDPRVRLILEVGDKRIEVHGREEFERWYREEMRHLRIEHIHIEHVEVQGEKVHAIIEVHTHVNGRRHIHKTHITMDFIDGRFKRMKIDVK	protease stability score	2.14

====

// reported protease stability score per item
# procedure.text: protease stability score; higher = more stable; yeast display proteolysis, trypsin and chymotrypsin;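 also: relative to predicted unfolded state with 0 unfolded-like and 1 meaning tenfold more protease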
quantity: protease stability score

biopolymer.sequence	result.value
DHETRWLRHVLKIWDHMVETGDWEKSERLADPNTKLVIDGVDLHGRRDYNRHMRELRVHHTEINDVELTNIGDKVHLYREVDYDITVDGRRIITHIELFLIIRKVDGRWILEEQEVNFR	0.236
DEDLRMAFEMVRISDHEIDTGDEDSWTKLFDPHVRIRFPGRMLHGREYLHYVLKHARIHYDDSELKDVKFVGNKLLVDVHVRGTFFIDGQNIHTEVKRIHMIEKYNGKWKTTEMEIK	0.469
DEEEEDVRRAVEIWERSLRTGDEHEVKRFVDPHTRLEVDGREFHGREQFIEVMRHWRFRHFQIRDFRVIDGRADVDAISEVDYNGRRFEVKTIIIVIKINGRWVLHSLNIR	1.63
DEEHEEYMDWAIIHLHDWLTGDEDHHNELADPNDRLELVIGDKRIERIGREEVTKQLHEFRKHMRVHRIEIKTRNVYNGKAHLHGIMHFRVGDKKYDVETHIVIVIINGVLKQVKIEIR	0.773
SEEHEQLLRMAQIWIKNWLTGDEKSMIELADPRVLFIYGDKIHHGWEEMSKFLHRLMEEIRIEDLRIDSFRAYNGRVEHDTTIDVEIGDKRINLKHHFHLDVVDGRIRHVKVKID	0.726
DEDEEYAREMYRLSVEALSTGDEDTLRHLFDPDVKVSWNGKENIGMEQSLKHWHHLRIEFRRIKIEQVHIQGNKVRLNLRVDGYIRVDGKEDRVHMKSHSVYVKINGKWTMHSIEFE	1.79
DDEHEHYRRQTKLVEDLFLTGDWDKIFRLLDPHVRMEINGRQHIGRERVTTEFKQHIEDLGIDHVEIKRSHVQGEKMHLDGVIEFNGRKQSSELIIVIIDGVWHSIVVQLH	1.09
DEDEKIIEDIIRKIWLAFMTGDEELYERLADPEDRLEVGEKTAVGREDVRRALHEWIRKLGIKHSHTRHMDFQGDKLIIHGEMLFNGRTFDLQLEFNVVNGRLKSMHVRIR	1.58
SEDEKNVDEFMERMTRLTETGDEDNLRHLMDPNVYLHQGDKVHHGREDVVKAIREIIDNLGVTQVKAEVHSFEVIGDKMDLRGTLEFNGVRWRRHIDIHKVDGRWHLQFVHIE	0.251
DEEEIALKRIVELWLEVIETGDERITEHLLDPRARFEFENHSRHGRKELTRWMTQLGIKYLDLHRMHIRVFDGRLHVHIDGTEIYDGVRRKSEIRMDVLKVDGKWLVEEYSIRFK	1.25
DEDTTMLEEMARLLVEMWLTGDEEKIYKLADPDVRLNVNGKDQIGREESEKLRRELLETLGIKHFEVEDLKIRLIDGRVNVHIYGIVKFNGVNVKMILDHHSRKVNGRWRIEHLRIIHI	1.32
